System: UO-31 renal
TEST_SUMMARY: NCI-60 one-dose screen, 48 h
RUN_CONDITIONS: 10 µM
Compounds without any hit were thinned out: in the full panel of roughly 83,000, 20% have a hit. Active and inactive are the calls of the source. Rule for the calls: active = growth percent below 10; inactive = the rest.
Can you answer with just one of these options? active, inactive

Solved cases below.
>  <COMPOUND>
O=C(CN1CCN(c2ncnc3c2cnn3-c2ccccc2)CC1)Nc1nncs1

>  <CATEGORY_LABEL>
active

$$$$
>  <COMPOUND>
CN1CCN(c2ccc(Nc3nc(N4CCN(S(=O)(=O)c5ccc(F)cc5)CC4)c4sccc4n3)cc2)CC1

>  <CATEGORY_LABEL>
active

$$$$

Now let's try a different one.
*Q* Recorded test call requested for O=C1c2ccccc2C(=O)c2c1c(C(=O)c1ccc(Cl)cc1)n1c2ccc2c3ccccc3ccc21
*A* inactive

====

Tested on: OVCAR-5 ovarian
TEST_SUMMARY: NCI-60 one-dose screen, 48 h (100 = growth as untreated, 0 = no growth, -100 = all killed)
RUN_CONDITIONS: 10 µM
Compounds without any hit were thinned out: in the full panel of roughly 83,000, 20% have a hit.
Recorded growth, one value per entry.
Give your result in % as a bare value.

Some compounds with known growth results, for comparison:
>  <COMPOUND>
O=C(CSc1nnc(-c2c[nH]c3ccccc23)n1-c1ccccc1)Nc1ccc(C(=O)/C=C/c2ccccc2Cl)cc1

>  <growth (%)>
101

$$$$
>  <COMPOUND>
Nc1n[nH]c2cccc(C#Cc3cccc(NC(=O)Nc4cc(C(F)(F)F)cc(C(F)(F)F)c4)c3)c12

>  <growth (%)>
-46

$$$$
>  <COMPOUND>
Nc1nc(-c2ccccc2)cs1

>  <growth (%)>
83.5

$$$$
>  <COMPOUND>
O=C(N/C(=C1/OCCN1Cc1ccccc1)[P+](c1ccccc1)(c1ccccc1)c1ccccc1)c1ccccc1

>  <growth (%)>
67.3

$$$$
>  <COMPOUND>
COc1cccc(/C=N/NC(=O)c2ccc3nc(-c4ccc(Cl)cc4)[nH]c3c2)c1O

>  <growth (%)>
-63

$$$$
>  <COMPOUND>
CCOc1ccc2ncc(C#Cc3cncc(C(=O)Nc4ccc(CN5CCN(C)CC5)c(C(F)(F)F)c4)c3)n2n1

>  <growth (%)>
-87

$$$$

*Q* Quick one: growth for CCOC(=O)CNC(=O)CN(Cc1ccccc1)C(=O)[C@@]1(C)CCC[C@]2(C)[C@H]3C[C@H]4C(C(C)C)=C[C@]3(CC[C@H]21)[C@@H]1C(=O)OC(=O)[C@@H]14 ?
*A* 105

*Q* Item CN1C(=O)N(C)C2SC(N/N=C/c3ccccc3F)=NC21 (centres undefined) has what recorded growth?
*A* 86.7

*Q* I would be grateful if you could share the reported growth for CN(CCO)c1oc(-c2ccccc2)nc1[P+](c1ccccc1)(c1ccccc1)c1ccccc1 .
*A* 16.2

====

Tested on: COLO 205 colon
TEST_SUMMARY: NCI-60 one-dose screen, 48 h
RUN_CONDITIONS: 10 µM
Description: Cells are grown in 96 well plates and exposed to the test compound for 48 hours. Compounds are tested at a single concentration, which is 10^-5 M for most compounds. The reported endpoint is percent growth (GI% or GIPRCNT), where numbers from 0 - 100% represent growth inhibition, and numbers from -100% - 0 represent cell death. For example, a value of 40 represents 60% growth inhibition. A value of 0 means no net growth occurred over the course of the experiment. […]
About 83,000 compounds went through this panel and 20% of them were active in at least one assay; those are over-represented in the sample as a whole. Active and inactive are the calls of the source. Rule for the calls: active = growth percent below 10; inactive = the rest.
Entry note: the call must match one of T (active), F (inactive)

>  <COMPOUND>
COc1ccc2[nH]c(=O)c(CSc3ccc(Nc4nccc(-c5ccc(Cl)cc5)n4)cc3)cc2c1

>  <TEST_SYSTEM>
COLO 205 colon

>  <CATEGORY_LABEL>
F

$$$$
>  <COMPOUND>
CO[C@H]1CSS[C@@H]1Cn1nc(-c2ccc(Oc3ccccc3)cc2)c2c(N)ncnc21

>  <TEST_SYSTEM>
COLO 205 colon

>  <CATEGORY_LABEL>
F

$$$$
>  <COMPOUND>
COc1ccc(Nc2nc(N)n(Cc3cccc(Br)c3)n2)cc1

>  <TEST_SYSTEM>
COLO 205 colon

>  <CATEGORY_LABEL>
T

$$$$
>  <COMPOUND>
CC1=C2C(=C[C@@](C)(COCOCCCl)[C@@H]2O)C(=O)[C@](C)(O)C12CC2

>  <TEST_SYSTEM>
COLO 205 colon

>  <CATEGORY_LABEL>
T

$$$$
>  <COMPOUND>
C=C1CCC2C3(C)COC(c4ccccc4F)OC3CCC2(C)C1C/C=C1/C(=O)OCC1O (stereo not drawn)

>  <TEST_SYSTEM>
COLO 205 colon

>  <CATEGORY_LABEL>
T

$$$$
>  <COMPOUND>
O=C1Nc2cc(-c3ccc(NC(=O)c4cccs4)cc3)ccc2/C1=C/c1ccc[nH]1

>  <TEST_SYSTEM>
COLO 205 colon

>  <CATEGORY_LABEL>
F

$$$$

*Q* Called result for Cn1cc(/C=N/Nc2cccc(Cl)n2)c2ccccc21
*A* F

*Q* Tell me the recorded outcome of this test for COc1ccc(/C=N/N=C(\C)c2ccc3c(c2)Nc2ccccc2S3)cc1O .
*A* F

*Q* Outcome? O=C(Nc1ccncc1)c1ccc(-n2c(=O)[nH]c3ccccc3c2=O)cc1
*A* F

*Q* How was O=C(CSc1nnc(-c2c[nH]c3ccccc23)n1-c1ccccc1)Nc1ccc(C(=O)/C=C/c2cccc([N+](=O)[O-])c2)cc1 classified in this test?
*A* F

*Q* Please indicate how the test categorized Nc1nc(-c2ccccc2)cs1 .
*A* F

*Q* Recorded test call requested for C=CCn1c(SCC(=O)Nc2ccc(C(=O)/C=C/c3ccccc3)cc2)nnc1-c1c[nH]c2ccccc12
*A* F

*Q* Lab log entry: O=C(NO)c1ccc(CNC(=O)[C@H]2Cc3c([nH]c4ccccc34)[C@H](c3ccccc3)N2)cc1 — outcome as called in the assay?
*A* T

*Q* Test call, this compound: O=S(=O)(Nc1ncccn1)c1ccc(-n2c(-c3ccccc3)nc(-c3ccccc3)c2-c2ccccc2)cc1
*A* F

*Q* Write down the call the test reported for this compound. Item: Cc1ccc(C(=O)N/C(=C2/OCCN2C)[P+](c2ccccc2)(c2ccccc2)c2ccccc2)cc1
*A* F

*Q* I'd appreciate the recorded outcome for COc1cc(/C=C/C(=O)c2ccc(C(F)(F)F)cc2)ccc1Oc1nc(Nc2ccc(F)cc2)nc(N(C)C)n1 from this test.
*A* F

*Q* Could you kindly confirm the outcome this assay logged for CCOC(=O)C1=C(N)N(c2ccc(Cl)cc2)C2=C(C(=O)CC(C)(C)C2)C1c1ccc(N2CCOCC2)cc1 (stereo not drawn) ?
*A* F

*Q* Hi, do you know how O=C1NC(=NC23CC4CC(CC(C4)C2)C3)N/C1=C\c1ccc2ncsc2c1 came out in this test?
*A* T

*Q* Which outcome was entered for the compound CCCn1c(=O)c2[nH]c(-c3ccc(OCc4nc5ccc(C)cc5[nH]4)cc3)nc2n(CCC)c1=O in this test?
*A* F

*Q* Write down the call the test reported for this compound. Item: O=C(NO)c1ccc(CNC(=O)[C@H]2Cc3c([nH]c4ccccc34)[C@H](c3ccc(Cl)cc3)N2)cc1
*A* T

*Q* Hi, sorry to bother you, what did the test record for C/C(=C\CSc1ccccc1C(=O)O)CCCC(C)CCCC(C)CCCC(C)C (stereo not drawn) ?
*A* F

*Q* Assay outcome for C/C(=N\NC(N)=S)c1ccc(Nc2nc(SC(C)C)nc(-c3ccccc3)c2C#N)cc1 : what was it?
*A* F

*Q* Which outcome was entered for the compound Clc1cccc(N/N=C/c2c[nH]c3ccccc23)n1 in this test?
*A* F

*Q* Which outcome did this test record for the compound O=C(/C=C/Nc1ccccc1)c1ccc2c(c1)Nc1ccccc1S2 ?
*A* F

*Q* Please state the recorded outcome for this compound: CNC(=O)c1cccc(N2CCc3c2ccc(NC(=O)Nc2ccc(N4CCN(C)CC4)c(C(F)(F)F)c2)c3F)c1
*A* F
